The measurements presented in this section are drawn from patent US10023565B2.

Experiment: Mice pharmacokinetic evaluation (LC-MS/MS of plasma)
Type: in vivo, ICR mice
Details: male, ICR, mouse, plasma, iv, 1 mg/kg, intravenous 1.0 mg/kg, 8.0 h, Mean; read-out: Plasma concentration of active compound
Assay metric: concentration at 8 h (ng/mL)
One number for each entry, in ng/mL.

Qu. Form field: reported concentration at 8 h of CSc1nccc(N2CCC(N(C)Cc3ccc(C#N)cc3)CC2)n1
Ans. 0.84

====

Tested on: N87
Experiment: Extended test against tumor cell lines (ATPlite)
Type: cell-based
Conditions: N87 (gastric cancer), 1 μM, 72 hours
Use 1 when the recorded Survival rate is no lower than 70%; use 0 when it is lower.

The examples below pair each entry with its known result.
* CSc1nccc(N2CCC(N(C)Cc3c(F)cccc3Cl)CC2)n1 | 0
* CSc1nccc(N2CCC(N(C)Cc3c(Cl)cccc3Cl)CC2)n1 | 0

Lab note: next compound to report on.
Qu. Entry CSc1nccc(N2CCC(N(C)Cc3ccc(C#N)cc3)CC2)n1 : is its Survival rate no less than 70%?
Ans. 1

====

Assay: Mice pharmacokinetic evaluation (LC-MS/MS of plasma)
Type: in vivo, ICR mice
Settings: male, ICR, mouse, plasma, iv, 1 mg/kg, IV 1.0 mg/kg, Mean ± SD, n = 3
Assay metric: AUC(0-t)
In your response, put the unit directly after the numeric value.

Qu. Form field: reported AUC(0-t) of CSc1nccc(N2CCC(N(C)Cc3ccc(C#N)cc3)CC2)n1
Ans. 49.6 ng·h/mL

====

Test system: BGC823
Assay: Extended test against tumor cell lines (ATPlite)
Format: cell-based
Settings: BGC823 (gastric cancer), 1 μM, 72 hours
Assay metric: Survival rate (%)
Answers are plain numbers, in %.

Solved cases (2 shown):
* CSc1nccc(N2CCC(N(C)Cc3ccc(C#N)cc3)CC2)n1 [Example 36] | 74.3
* CSc1nccc(N2CCC(N(C)Cc3ccccc3Cl)CC2)n1 [Example 47] | 84.3

Batch: Survival rate for all items listed.
1. CSc1nccc(N2CCC(N(C)Cc3c(Cl)cccc3Cl)CC2)n1 [Example 49]
2. CSc1nccc(N2CCC(N(C)Cc3ccc(Cl)cc3Cl)CC2)n1 [Example 40]
3. CSc1nccc(N2CCC(N(C)Cc3c(F)cccc3Cl)CC2)n1 [Example 37]

Ans.
44
73.7
59.7

====

System: BT474
Test: Antitumor bioactivity evaluation, breast cancer cells (ATPlite)
Assay type: cell-based
Details: Homo sapiens, BT-474; test sample 5 μM, 72 hours; read-out: Inhibitory Rate % BT474
Assay metric: inhibition at 5 µM

Solved cases (2 shown):
• COc1cc(N2CCC(N(C)Cc3ccc(F)cc3)CC2)ncn1 = 7.8%
• CCOc1ncc(CN2CCC(N(C)Cc3ccccc3C#N)CC2)s1 = 17.6%

Batch: inhibition at 5 µM for all items listed.
1. CSc1nccc(N2CCC(N(C)Cc3cccc(Cl)c3)CC2)n1
2. Cc1ccc(CN(C)C2CCN(Cc3cnc(Cl)s3)CC2)cc1
3. CN(Cc1ccc(C#N)cc1)C1CCN(Cc2cnc(Cl)s2)CC1
4. Cc1ccccc1CN(C)C1CCN(Cc2cnc(Cl)s2)CC1
5. CSc1nccc(N2CCC(N(C)Cc3ccc(F)cc3)CC2)n1
6. CSc1nccc(N2CCC(N(C)Cc3c(F)cccc3Cl)CC2)n1
7. COc1cc(N2CCC(N(C)Cc3ccccc3Cl)CC2)ncn1

Ans.
1. 35.1%
2. 14.2%
3. 69.3%
4. 1.5%
5. 40.5%
6. 75.5%
7. 27.7%

Batch: inhibition at 5 µM for all items listed.
1. COc1nccc(N2CCC(N(C)Cc3cccc(Cl)c3)CC2)n1
2. COc1nccc(N2CCC(N(C)Cc3cccc(F)c3)CC2)n1
3. CSc1ncc(CN2CCC(N(C)Cc3c(Cl)cccc3Cl)CC2)s1
4. COc1nccc(N2CCC(N(C)Cc3ccc(F)cc3)CC2)n1
5. CSc1ncc(CN2CCC(N(C)Cc3ccc(C)cc3)CC2)s1
6. CCOc1ncc(CN2CCC(N(C)Cc3c(F)cccc3Cl)CC2)s1
7. CNC1CCN(c2nccc(OC)n2)CC1
8. COc1nccc(N2CCC(N(C)Cc3cc(Cl)ccc3Cl)CC2)n1

Ans.
36.2%
9.9%
54.9%
12.5%
68.3%
54.4%
73.1%
74.2%

Batch: inhibition at 5 µM for all items listed.
1. CN(Cc1c(F)cccc1Cl)C1CCN(Cc2cnc(Cl)s2)CC1
2. CCOc1ncc(CN2CCC(N(C)Cc3ccc(F)cc3)CC2)s1

Ans.
1. 10.6%
2. 36.4%

Batch: inhibition at 5 µM for all items listed.
1. COc1cc(N2CCC(N(C)Cc3cc(Cl)ccc3Cl)CC2)ncn1
2. COc1cc(N2CCC(N(C)Cc3ccc(Cl)c(Cl)c3)CC2)ncn1
3. CN(Cc1ccc(F)cc1)C1CCN(Cc2cnc(Cl)s2)CC1
4. CSc1ncc(CN2CCC(N(C)Cc3cc(Cl)ccc3Cl)CC2)s1
5. CCOc1ncc(CN2CCC(N(C)Cc3ccccc3Cl)CC2)s1

Ans.
1: 45.9%; 2: 9.8%; 3: 7.1%; 4: 42.3%; 5: 10.1%
